These data points were gathered from paper PMC8201661.

Test system: RPMI 8226 cells
method-description: Cell toxicity, WST-1 assay, RPMI 8226
Assay type: cell-based
assay-context: Homo sapiens, RPMI-8226, 48 h, read-out: EC50 cytotoxicity, RPMI 8226
observable: pEC50
// returns pEC50 (minus log10 of molar concentration), number only

Determine from records and report pEC50 for CC(C)CCCCC/C=C/C=C/C(=O)N[C@H](C(=O)N[C@H]1C[C@@H](O)CCNC(=O)/C=C/[C@H](C)NC1=O)[C@@H](C)O
7.51
